System: bovine heart mitochondrial complex (I, III, IV)
Assay: NADH oxidase inhibition assay (beef heart submitochondrial particles)
Assay type: biochemical
Conditions: 5 μM compound
Please respond with reported NADH oxidase (complex I, III, IV) activity (%) for every item in the list.
The response must be a number in % with no trailing unit.

Need NADH oxidase (complex I, III, IV) activity (%) of C=Cc1c(C)n(O)c(C)c(CCCCCCC)c1=O , thanks.
20.7

Need NADH oxidase (complex I, III, IV) activity (%) of CCCCCCCc1c(C)n(O)c(C)c(N)c1=O , thanks.
76.7

Need NADH oxidase (complex I, III, IV) activity (%) of C=Cc1c(C)n(O)c(C)c(CCCCCCCCCCCCCCCC)c1=O , thanks.
12

Need NADH oxidase (complex I, III, IV) activity (%) of CCCCCCCc1c(C)n(O)c(C)c(OC)c1=O , thanks.
44.5

Need NADH oxidase (complex I, III, IV) activity (%) of CCCCCCCCCCCCCCCCc1c(C)n(O)c(C)c(N)c1=O , thanks.
12.7
